- Particulars: 328.15 K; 101.33 kPa; Liquid
Form field: mass density (one value per entry).
Measurement label: mass density (kg/m3)

In [3]: df
Out[3]:
                        compound  measurement_label  unit_spec  recorded_number
0     CC(O)CO (stereo not given)       mass density      kg/m3          1009.56
1  CC(O)C(C)O (stereo not given)       mass density      kg/m3           970.58
2    CC(O)CCO (stereo not given)       mass density      kg/m3           979.18
3    CCC(O)CO (stereo not given)       mass density      kg/m3           976.09
4                          OCCCO       mass density      kg/m3          1030.96

* * *

- Particulars: 318.15 K; 101.33 kPa; Liquid; Linear variable-path acoustic interferometer
Measurement label: speed of sound (m/s)

>>> print(df.to_string())
                                   compound  recorded_number
0  CC(O)CO (centres undefined) [1,2-propanediol]           1438.1
1                   OCCCO [propan-1,3-diol]           1599.2
2                                 O [water]           1535.1
3  CCC(O)CO (centres undefined) [1,2-butanediol]           1396.2

* * *

- Particulars: 328.15 K; 101.33 kPa; Liquid; Capillary tube (Ostwald / Ubbelohde) method
Quick list: viscosity per entry.
Measurement label: viscosity (mPa·s)

                                compound  measurement_label  unit_spec  recorded_number
0     CC(O)CO (configuration not stated)          viscosity      mPa·s            9.691
1                                  OCCCO          viscosity      mPa·s            11.28
2                                      O          viscosity      mPa·s            0.503
3                                 OCCCCO          viscosity      mPa·s            19.48
4    CCC(O)CO (configuration not stated)          viscosity      mPa·s             10.9
5  CC(O)C(C)O (configuration not stated)          viscosity      mPa·s            7.722
6    CC(O)CCO (configuration not stated)          viscosity      mPa·s            18.91

* * *

- Particulars: 338.15 K; 101.33 kPa; Liquid; Linear variable-path acoustic interferometer
Measurement label: speed of sound (m/s)

                                   compound  measurement_label  recorded_number
0  CCC(O)CO (centres undefined) [1,2-butanediol]     speed of sound             1366
1                                 O [water]     speed of sound             1551
2  CC(O)CO (centres undefined) [1,2-propanediol]     speed of sound           1382.8
3                   OCCCO [propan-1,3-diol]     speed of sound             1557
